Test system: Veronica hederifolia
Assay: Post-emergence herbicidal activity against Veronica hederifolia compound treated as foliar application measured after 2 weeks
Type: functional
PARAMETER_MEASURED: GR80 (ppm)
Give bare numbers, in ppm.

CCOc1cnc(OC)n2nc(NS(=O)(=O)c3c(Cl)cccc3Cl)nc12	216

Batch: GR80 for all items listed.
1. COc1cccc(OC)c1S(=O)(=O)Nc1nc2c(OC)cnc(OC)n2n1
2. COc1ccccc1S(=O)(=O)Nc1nc2c(OC)cnc(OC)n2n1

0.5
1

Please state, for each entry, its recorded GR80.
1. COc1cnc(OC)n2nc(NS(=O)(=O)c3c(OCCCF)cccc3C(F)(F)F)nc12
2. COc1cnc(OC)n2nc(NS(=O)(=O)c3c(Cl)cccc3Cl)nc12
3. COc1cnc(OC)n2nc(NS(=O)(=O)c3ccccc3C(F)(F)F)nc12
4. COc1ncc(Cl)c2nc(NS(=O)(=O)c3c(Cl)cccc3Cl)nn12
5. COc1ncc(F)c2nc(NS(=O)(=O)c3c(Cl)cccc3Cl)nn12

1: 15; 2: 2; 3: 13; 4: 1; 5: 19

* * *

System: Fallopia convolvulus
Test: Post-emergence herbicidal activity against Fallopia convolvulus compound treated as foliar application measured after 2 weeks
Type: functional
PARAMETER_MEASURED: GR80

Solved entries:
COc1cc2nc(NS(=O)(=O)c3c(Cl)cccc3Cl)nn2c(OC)n1	>1000 ppm
COc1cccc(C(F)(F)F)c1S(=O)(=O)Nc1nc2c(OC)cnc(OC)n2n1	<0.2 ppm

Please turn your attention to the following entry.
Please supply the value of reported GR80 for the item COc1ncc(C)c2nc(NS(=O)(=O)c3c(Cl)cccc3Cl)nn12
<15 ppm

* * *

Provide the reported GR20 of each item.
Test system: Oryza sativa
Experiment: Phytotoxicity against Oryza sativa (rice)
Type: organism-based
Details: in vivo

Solved cases below.
COc1cccc(OC)c1S(=O)(=O)Nc1nc2c(OC)cnc(OC)n2n1	< 0.5 ppm
COc1cnc(OC)n2nc(NS(=O)(=O)c3ccccc3C(F)(F)F)nc12	< 1 ppm
COc1cnc(OC)n2nc(NS(=O)(=O)c3cc(Cl)ccc3Cl)nc12	< 2 ppm
COc1cnc(OC)n2nc(NS(=O)(=O)c3c(OCCCF)cccc3C(F)(F)F)nc12	> 250 ppm
COc1cc2nc(NS(=O)(=O)c3c(Cl)cccc3Cl)nn2c(OC)n1	> 1000 ppm

For each of the items listed, what is its GR20?
1. COc1ncc(F)c2nc(NS(=O)(=O)c3c(Cl)cccc3Cl)nn12
2. COc1ccccc1S(=O)(=O)Nc1nc2c(OC)cnc(OC)n2n1

1: > 125 ppm; 2: < 1 ppm

* * *

Task for the reader: assign each of the following molecules its reported log10 GR80.
Test system: Veronica hederifolia
Assay: Post-emergence herbicidal activity against Veronica hederifolia compound treated as foliar application measured after 2 weeks
Assay type: functional
On a log10 scale: recorded GR80, unit ppm.

Below, each entry is followed by its recorded log10 GR80 result.
COc1nccc2nc(NS(=O)(=O)c3c(Cl)cccc3Cl)nn12	2.68
COc1cnc(OC)n2nc(NS(=O)(=O)c3c(OCCF)cccc3C(F)(F)F)nc12	0.78
COc1nc(F)cc2nc(NS(=O)(=O)c3c(Cl)cccc3Cl)nn12	1.79

Please go through the list and note log10 GR80 for each molecule.
1. COc1cnc(OC)n2nc(NS(=O)(=O)c3cc(Cl)ccc3Cl)nc12
2. COc1cnc(OC)n2nc(NS(=O)(=O)c3cc(Cl)cc(Cl)c3)nc12
3. CCOc1cccc(C(F)(F)F)c1S(=O)(=O)Nc1nc2c(OC)cnc(OC)n2n1

1: 1.28; 2: 2.10; 3: 0.30
